- Tested on: MOLT-4 leukemia
- ASSAY: NCI-60 one-dose screen, 48 h (100 = growth as untreated, 0 = no growth, -100 = all killed)
- EXPERIMENTAL_PARAMETERS: 10 µM
About 83,000 compounds went through this panel and 20% of them were active in at least one assay; those are over-represented in the sample as a whole.

| COMPOUND | TESTED_TARGET | growth, % |
| --- | --- | --- |
| Cc1cc(=O)n2nnc3cc(C(F)(F)F)ccc3n12 | MOLT-4 leukemia | 91.3 |
| S=c1cnc2ccccc2[nH]1 | MOLT-4 leukemia | 91.7 |
| O=S(=O)(Oc1ccc(-c2ccc3sccc3c2)cc1)c1ccc(F)cc1 | MOLT-4 leukemia | 89.4 |
| CC(=O)OC1C=CC(OC(C)=O)O1 (centres undefined) | MOLT-4 leukemia | 90 |

----------
- Tested on: SN12C renal
- ASSAY: NCI-60 one-dose screen, 48 h
- EXPERIMENTAL_PARAMETERS: 10 µM
This is part of a sample that, as a whole, favours compounds with a hit. Of some 83,000 tested, about 20% had one in any assay. Calls of active or inactive are those of the source. Rule for the calls: active = growth percent below 10; inactive = the rest.
Labels: T (active), F (inactive)

| SMILES_TEXT | ANSWER_LABEL |
| --- | --- |
| COc1ccc(-c2cc(-c3ccccc3)nc(SCCCC(=O)NO)n2)cc1 | T |
| CS(=O)(=O)c1nccc(-c2c(-c3cccc(OCc4ccccc4)c3)nc3sccn23)n1 | F |
| COc1cc(-c2csc(NC(=O)Nc3ccc(Cl)c(C(F)(F)F)c3)n2)cc(OC)c1OC | T |
| CC(=O)Nc1ccc(S(=O)(=O)N/N=C(\C)c2ccc(C)cc2C)cc1 | F |
| Cc1ccc2nc(Cl)c(-c3nc4ccccc4o3)cc2c1 | F |

----------
- Test system: SK-MEL-5 melanoma
- ASSAY: NCI-60 one-dose screen, 48 h (100 = growth as untreated, 0 = no growth, -100 = all killed)
- EXPERIMENTAL_PARAMETERS: 10 µM
This is part of a sample that, as a whole, favours compounds with a hit. Of some 83,000 tested, about 20% had one in any assay.
QUANTITY_KIND: growth (%)

| MOLECULE | READING |
| --- | --- |
| COc1cc2c(Nc3ccc(S(N)(=O)=O)cc3)ncnc2c(OC)c1OC | 91.4 |
| C[C@]12CC[C@@H]3c4ccc(O)cc4CC[C@H]3[C@@H]1CC[C@@H]2NS(=O)(=O)c1ccc(C(F)(F)F)cc1 | 41.2 |
| COc1cc2cc(Oc3ccc(NC(=O)Nc4ccc(Cl)c(Cl)c4)cc3)c(C)nc2cc1OC | -35 |
| COc1cc2c(cc1OC)C(C(CCCCCC(CCC(C)C)C1NCCc3cc(OC)c(OC)cc31)CCC(C)C)NCC2 (stereo unspecified) | -96.4 |
| OC[C@H]1OC([S-])[C@H](O)[C@@H](O)[C@@H]1O.[Au+] (stereo partly specified) | 68.5 |
| CCOC(=O)c1cc(C(=O)c2ccc(F)cc2F)n2ccccc12 | 92.6 |
| Nc1cc(Br)c(-c2nn3c(CCC(=O)c4nc5ccccc5[nH]4)nnc3s2)c(Br)c1 | 91.6 |
| C[C@@H](O)[C@H]1C(=O)N2C(C(=O)O)=C(SCCN=CN)C[C@H]12 | -87.2 |
| C[N+]1(CCCCC[N+]2(C)CCCC2)CCCC1 | 103 |
| O=C1c2ccccc2C(=O)c2c1ccc1c(=O)n(-c3ccccc3C(F)(F)F)nnc21 | -94.3 |
| COc1ccc(-c2csc(NC(=O)c3ccc(Cc4n[nH]c(=O)c5cccnc45)cc3)n2)cc1 | 85.7 |
| CC1=CC2C(C(O)CC3(C)C2CC(C)C32OCOC23COCO3)C2(C)C/C(=C/O)C(=O)C=C12 (stereo unspecified) | 44.2 |
| CCCCc1oc2ccccc2c1C(=O)c1cc(I)c(OCCN(CC)CC)c(I)c1 | -100 |
| c1ccc2c(c1)Cc1ccccc1N2CCN1CCCCC1 | 95.5 |
| Oc1ccc(-c2[nH]c3ccccc3c2-c2nc3ccccc3o2)cc1 | 43.4 |
| CCC(c1ccc(OC)cc1)C(CC)c1ccc(O)c(CN2CCN(C)CC2)c1 (stereo unspecified) | 4.57 |
| COc1cc(C(=O)N2CCN(c3cc4c(cc3F)c(=O)c(C(=O)NO)cn4C3CC3)CC2)cc(OC)c1OC | 101 |
| Cc1cc(Br)nnc1Br | 94.7 |
| Cc1ccc(/C=C/C(=O)C(=O)/C=C/c2ccc(C)cc2)cc1 | 106 |
| COCCn1cc(-c2nc(-c3cccnc3)cs2)c2cc(F)ccc21 | 82.9 |
| CC(C)(C)OC(=O)N1CCc2c(sc3ncnc(N/N=C/c4ccccc4Br)c23)C1 | 66.6 |

----------
- Test system: SK-MEL-28 melanoma
- ASSAY: NCI-60 one-dose screen, 48 h
- EXPERIMENTAL_PARAMETERS: 10 µM
The panel holds about 83,000 compounds, 20% with a hit somewhere; the sample as a whole holds those more often. Active and inactive are the calls of the source. The calls were made as follows: active = growth percent below 10; inactive = the rest.
Outcomes: active, inactive

| COMPOUND | ANSWER_LABEL |
| --- | --- |
| Cc1ccc(C2=NN(c3ccc(S(C)(=O)=O)cc3)C(=O)CC2)cc1 | inactive |
| O=C(N/N=C/c1cc([N+](=O)[O-])ccc1O)c1cccc2ccccc12 | inactive |
| C#C[C@]1(O)CCC2C3CCc4cc(OC5CCCC5)ccc4C3CC[C@@]21C (some centres undefined) | inactive |
| COc1ccc2nc(-c3ccc(Cl)cc3)cc(-c3nnc(SC/C(=N\O)c4ccccc4)n3-c3ccccc3)c2c1 | inactive |
| Cc1cc(CCNC=O)c(C)c2c1sc1ccccc12 | inactive |
| Brc1ccc2c(c1)-c1ccccc1C1=NCCN12 | active |
| COc1ccc2c(c1)OC(N)=C(C#N)C2c1cc(OC)c(OC)c(OC)c1 (centres undefined) | inactive |
| NS(=O)(=O)c1ccc(Br)cc1 | inactive |
| C[C@H]1[C@H](OC(=O)CCC(=O)O)O[C@@H]2O[C@]3(C)CC[C@H]4[C@H](C)CC[C@@H]1[C@@]24OO3 | inactive |

----------
- Tested on: OVCAR-3 ovarian
- ASSAY: NCI-60 one-dose screen, 48 h
- EXPERIMENTAL_PARAMETERS: 10 µM
About 83,000 compounds went through this panel and 20% of them were active in at least one assay; those are over-represented in the sample as a whole. Activity calls are given as the source filed them. The calls were made as follows: active = growth percent below 10; inactive = the rest.
Possible outcomes: active, inactive

| COMPOUND | ANSWER_LABEL |
| --- | --- |
| COc1ccc(-c2nn(-c3cccc(Cl)c3)cc2C=C(C#N)C#N)cc1 | active |
| CCN1C(=O)CC(SC2CC(=O)N(CC)C2=O)C1=O (configuration not stated) | inactive |
| Cc1c2c(nn1C(=O)c1nn(-c3ccc(Cl)cc3)cc1O)-c1ccccc1CC2 | active |
| O=C(c1ccccc1)N(C(=O)c1ccccc1)N1CCCC1 | inactive |
| CCOC(=O)/C(=C(\C)N)C1CC(=O)NC1=O (configuration not stated) | inactive |
| CCOC(=O)c1cc(C(=O)c2cc(OC)c(OC)c(OC)c2)n2c1ccc1c3cccnc3ccc12 | inactive |
| Cc1cc(C)nc(NS(=O)(=O)c2ccc(Nc3nc4nc(NCc5ccccc5)nc(-c5ccc(O)cc5)c4c(=O)[nH]3)cc2)n1 | inactive |
| Cc1cc(=O)n2nnc3cc(Cl)c(Cl)cc3n12 | inactive |
| COc1ccc2c(c1)C(=O)/C(=C/c1ccc([N+](=O)[O-])o1)O2 | active |
| COC(=O)c1c[nH]c2cc(OC(C)C)c(OC(C)C)cc2c1=O | inactive |
| O=C(CSc1nccc(Nc2cccc3ccccc23)n1)c1ccc(Cl)cc1 | inactive |
| COc1cc(C2C(C#N)=C(N)Oc3cc(O)ccc32)cc(OC)c1OC (configuration not stated) | active |

----------
Recorded growth, one value per entry.
- System: HS 578T breast
- ASSAY: NCI-60 one-dose screen, 48 h (100 = growth as untreated, 0 = no growth, -100 = all killed)
- EXPERIMENTAL_PARAMETERS: 10 µM
This is part of a sample that, as a whole, favours compounds with a hit. Of some 83,000 tested, about 20% had one in any assay.
QUANTITY_KIND: growth (%)

| COMPOUND | RESULT_UNITS | READING |
| --- | --- | --- |
| N#CCc1csc(Cc2ccccc2)n1 | % | 99.1 |
| COc1ccc(-c2nn(-c3cccc(Cl)c3)cc2/C=C2\NC(=S)N(c3ccc(Cl)cc3)C2=O)cc1 | % | 25.8 |
| CCC(C)[C@H](NC(C)=O)C(=O)N[C@@H](CCCNC(=N)N)C(=O)N[C@@H](CCCCN)C(=O)N[C@@H](CC1CCC(O)CC1)C(=O)NC(C(=O)N[C@@H](CCSC)C(=O)N[C@@H](CCCNC(=N)N)C(=O)N[C@@]1(C)CCC/C=C\CCC[C@@](C)(C(=O)NC(C(=O)N[C@@H](CCC(=O)O)C(=O)N[C@@H](CC(C)C)C(=O)N[C@H](C(=O)N[C@@H](CCC(=O)O)C(N)=O)C(C)C)[C@@H](C)O)NC(=O)[C@H](CCC(N)=O)NC(=O)[C@H](CC(C)C)NC(=O)[C@H](CC(C)C)NC1=O)[C@@H](C)O (stereo partly drawn) | % | -7.65 |
